Field: Mean IC50 (nM) on L1.2/human CXCR5 cells (chemotaxis). Provide a value for each of the binders that follow.
# experimental_system: T1, human CXCR5 (human, UniProt P32302 1-372)
# T1 sequence: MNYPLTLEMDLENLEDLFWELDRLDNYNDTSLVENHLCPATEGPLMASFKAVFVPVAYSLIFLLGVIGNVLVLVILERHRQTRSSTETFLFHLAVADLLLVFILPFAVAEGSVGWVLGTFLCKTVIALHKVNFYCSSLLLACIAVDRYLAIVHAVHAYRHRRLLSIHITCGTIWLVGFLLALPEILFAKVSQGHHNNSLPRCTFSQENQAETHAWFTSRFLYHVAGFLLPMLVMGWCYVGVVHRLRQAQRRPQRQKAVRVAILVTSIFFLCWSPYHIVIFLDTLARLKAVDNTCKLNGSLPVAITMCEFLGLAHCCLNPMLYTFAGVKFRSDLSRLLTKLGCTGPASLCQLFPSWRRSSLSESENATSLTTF
# assay_text: cell-based or functional assay
Please make sure the unit comes right after the number.

Looking up mAb 42F03 (antibody, human IgG1, V domains shown) VH: EVQLLESGGGLVQPGGSLRLSCAASGFTFSWYPMTWVRQAPGKGLEWVSYIRSSGGFTKYADSVKGRFTISRDNSKNTLYLQMNSLRAEDTAVYYCARGLYRWGQGTLVTVSS VL: IQMTQSPGTLSLSPGERATLSCRASQSVSNNYLAWYQQKPGQAPRLLISGASRRATDIADRFSGSGSGTDFTLTISRLEPEDFAVYYCQQYDSFPLTFGGGTKVEIK , I found its Mean IC50 (nM) on L1.2/human CXCR5 cells (chemotaxis) recorded as 1.86 nM

The binder listed as mAb 40C01 (antibody, V domains shown, also called 40C01 VH-VL; 40C01 parental molecule) VH: EVQLLESGGGLVQPGGSLRLSCAASGFTFSRYVMVWVRQAPGKGLDWVSGISPSGGVTRYADSVKGRFTISRDNSKNTLYLQMNSLRAEDTAMYYCARIRKEMTTISYFFDYWGQGTLVTVSS VL: DIQMTRAPDSLSASVGDRVTITCRASQGVDIYVAWYQQKPGKAPKLLMHSASTLASGVPSRFSGRGSGTDFTLTINSLQAEDVATYYCQSHNSAVVTFGQGTRLEIK shows Mean IC50 (nM) on L1.2/human CXCR5 cells (chemotaxis) equal to 5.6 nM

// Mean IC50 (nM) on L1.2/human CXCR5 cells (chemotaxis) value for mAb 80A10 (antibody, V domains shown) VH: EVQLLESGGGLVQPGGSLRLSCAASGFTFSMYVMKWVRQAPGKGLEWVSGIRSSGGDTSYADSVKGRFTISRDNSKNTLYLQMNSLRAEDTAVYYCARQSRYCNGGSCYSRAFDIWGQGTMVTVSS VL: QPPSASGTPGQRVTISCFGSNSNIGSTYAYWYQQVPGTAPKLLIYRNNQRPSGVPDRFSGSKSGTSASLAISGLRSEDEADYYCAAWDVNLSGHWVFGGGTKLTVLG : 4.7 nM

Mean IC50 (nM) on L1.2/human CXCR5 cells (chemotaxis) recorded for this binder, mAb 12A01 (antibody, V domains shown) VH: EVQLLESGGGLVQPGGSLRLSCAASGFTFSRYVMVWVRQAPGKGLDWVSGISPSGGVTRYADSVKGRFTISRDNSKNTLYLQMNSLRAEDTAMYYCARIRKEMTTISYFFDYWGQGTLVTVSS VL: DIQMTQSPDSLSASVGDRVTITCRASQGVDIYVAWYQQKPGKVPKLLMHSASTLASGVPSRFSGRGSGTDFTLTINSLQAEDVATYYCQSHNSAVVTFGQGTRLEIK , is 2200 nM
